- target.entity: PEG-3 (UniProt Q6IN02)
- Sequence (Q6IN02 whole entry, looked up): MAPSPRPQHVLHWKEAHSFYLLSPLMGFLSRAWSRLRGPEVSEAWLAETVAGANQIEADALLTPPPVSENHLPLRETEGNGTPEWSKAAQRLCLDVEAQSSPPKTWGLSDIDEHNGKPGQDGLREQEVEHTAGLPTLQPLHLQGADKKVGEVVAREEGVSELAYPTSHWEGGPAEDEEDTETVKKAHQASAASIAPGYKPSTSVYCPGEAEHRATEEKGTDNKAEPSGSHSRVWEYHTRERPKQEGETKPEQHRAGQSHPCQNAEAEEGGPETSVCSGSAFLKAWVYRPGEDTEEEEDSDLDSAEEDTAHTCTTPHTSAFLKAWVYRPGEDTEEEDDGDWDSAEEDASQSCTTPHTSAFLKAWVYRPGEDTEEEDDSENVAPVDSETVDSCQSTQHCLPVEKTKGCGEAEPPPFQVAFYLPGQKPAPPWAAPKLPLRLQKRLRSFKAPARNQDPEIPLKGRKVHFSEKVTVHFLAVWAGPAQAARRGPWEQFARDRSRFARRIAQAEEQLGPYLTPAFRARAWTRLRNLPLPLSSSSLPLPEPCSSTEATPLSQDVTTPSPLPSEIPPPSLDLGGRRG
- test.protocol: Peg3 promoter luciferase inhibitors, potency, dose response, cell-based, HeLa, CREF/GAPDH counter-screen panel (AID 624167)
- test.context: HeLa PEG-Prom luciferase reporter, overnight, CREF/GAPDH counter-screens, mean of runs
Each item that follows carries a reported IC50.

smiles.record: Brc1ccc(N=Nc2ccc3ccccc3n2)cc1
measured.value: 6.1 µM

smiles.record: COc1ccc(NC(=O)c2cc(-c3ccccn3)nc3ccccc23)cc1S(=O)(=O)N(C)C
measured.value: 0.724 µM

smiles.record: O=C(CNCCC1=CCCCC1)Nc1ccc(N2CCCCCC2)cc1
measured.value: 9.98 µM

smiles.record: COc1cc(Nc2c3ccccc3nc3ccccc23)cc(OC)c1OC
measured.value: 8.07 µM

smiles.record: O=C(C=Cc1ccccn1)c1ccccc1
measured.value: 16.6 µM

Consider the record given below.
Please fill in: IC50 reported for O=c1c2ccccc2cnn1-c1nc2ccccc2[nH]1 = 0.723 µM

* * *

- System: Rat fibroblasts (CREF)
- test.protocol: Peg3 promoter luciferase inhibitors, potency, dose response, cell-based, HeLa, CREF/GAPDH counter-screen panel (AID 624167)
- test.context: CREF/GAPDH counter-screens, run 2, dose range 1, individual replicate IC50 per panel
The molecules listed here are annotated with their IC50.
// note: answer is a bare numeric in nM

// solved cases for IC50 follow
molecule: COc1ccc(C(=O)CN2C(=O)c3ccccc3S2(=O)=O)cc1
IC50 / nM: 3040
--
molecule: COc1cc(SC)ccc1C(=O)Nc1ncc(C)s1
IC50 / nM: 2300
--
molecule: CC(C)(C)c1ccc(Cn2c(=O)cnc3ccccc32)cc1
IC50 / nM: 1930

Recorded IC50 (molecule C(=Cc1cnc2ccccc2n1)c1ccc2c(c1)OCO2 ): 1210

get_value(item= CN(c1ccc2nc3ccccc3c(=O)n2n1)C1CCCCC1 , readout=IC50) returns 755

Notebook: COc1cc(SC)ccc1C(=O)Nc1nc(C)cs1 , IC50 read as 490

Lab book: IC50 of c1ccc(-c2noc(-c3ccc4c(c3)OCO4)n2)nc1 noted as 1080

For record COc1ccc(-c2cc3nc(C)n(N)c(=O)c3s2)cc1 the listed IC50 is 1160

IC50 measured on N=c1n(CCN2CCCCC2)c2ccccc2n1CC(O)c1ccc(Cl)c(Cl)c1 (centres undefined) = 14800

IC50 measured on CC(=O)c1ccc(-c2cnc3c(NC=O)cc(-c4ccccc4Oc4ccccc4)cn23)cc1 = 8930

Measured IC50, O=C(Nc1nc2cc3c(cc2s1)OCO3)C1=COCCO1 : 2660

Quick note, IC50 for CCOC(=O)c1c(SCCN2CCCCC2)n(-c2ccccc2)c(=S)n(-c2ccccc2)c1=O landed at 14400

Entry under test: O=C(Cn1ncc(Cl)c(Cl)c1=O)N1CCc2ccccc21 . Its IC50 was 10000

Looking up CCCCCCCn1c(=N)n(CC(=O)c2ccco2)c2ccccc21 , I see its IC50 listed as 32100

Entry Cc1ccc2oc(/N=C(\N)NC(=O)C(C)(C)C)nc2c1 ; IC50 = 5570

Measured IC50, Cc1ccc(C(=O)O/N=C(\N)c2ccccn2)cc1 : 1500

* * *

A collection of compounds and their measured IC50
- System: Rat fibroblasts (CREF)
- test.protocol: Peg3 promoter luciferase inhibitors, potency, dose response, cell-based, HeLa, CREF/GAPDH counter-screen panel (AID 624167)
- test.context: CREF/GAPDH counter-screens, run 1, dose range 1, individual replicate IC50 per panel
Quick note: give the figure in µM, leave out the unit.

Answered cases to consult:
compound: O=C(O)c1ccc(N/N=C/c2ccc3c(c2)OCO3)cc1
target.entity: Rat fibroblasts (CREF)
IC50 / µM: 57.5

compound: Cc1ccc(-c2nc(-c3ccccn3)no2)cc1Cl
target.entity: Rat fibroblasts (CREF)
IC50 / µM: 1.22

compound: C(=N\Nc1ccc2ccccc2n1)/c1ccc2c(c1)OCCO2
target.entity: Rat fibroblasts (CREF)
IC50 / µM: 2.43

compound: O=C(N/N=C\c1c(O)ccc2ccccc12)c1cncc(Br)c1
target.entity: Rat fibroblasts (CREF)
IC50 / µM: 2.43

compound: Cc1cc(C)c2nc(NNC(=O)c3ccc(S(=O)(=O)N4CC(C)CC(C)C4)cc3)sc2c1 (stereo unspecified)
target.entity: Rat fibroblasts (CREF)
IC50 / µM: 13.9

compound: Cc1ccc(C(=O)CN2C(=O)c3ccccc3S2(=O)=O)cc1
target.entity: Rat fibroblasts (CREF)
IC50 / µM: 8.77

GET /value?item= COc1ccccc1CNCC(O)Cn1c2ccccc2c2ccccc21 (stereo unspecified) &field=IC50 returns 16.7

So, Nc1ccc(-c2nc3ccc(C(=O)O)cc3s2)cc1 ? Its IC50 was 6.25

The reported value for O=C(CN1C(=O)c2ccccc2S1(=O)=O)c1ccc2c(c1)OCCO2 in terms of IC50 is 1.28
